Target: Human ST2-fc (human) (UniProt Q01638)
Experiment: competition ELISA, coated ST2-fc, competitor IL33-his
measurement.label: IC50 (µg/mL)
Field: numeric (µg/mL). Do not append units.

Solved entries:
binder	measurement.label	assay.value
5888-153-H1L1 (antibody, human IgG4 S228P, kappa, V domains shown) VH: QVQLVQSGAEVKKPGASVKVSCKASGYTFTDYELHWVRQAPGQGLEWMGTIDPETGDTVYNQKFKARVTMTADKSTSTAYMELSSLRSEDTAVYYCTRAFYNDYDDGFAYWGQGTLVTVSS VL: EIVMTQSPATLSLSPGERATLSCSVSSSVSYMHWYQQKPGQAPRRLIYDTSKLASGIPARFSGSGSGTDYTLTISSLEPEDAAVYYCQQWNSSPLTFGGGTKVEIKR	IC50	0.624
5887-41-H1L0 (antibody, human IgG4 S228P, kappa, V domains shown, Humanized antibody) VH: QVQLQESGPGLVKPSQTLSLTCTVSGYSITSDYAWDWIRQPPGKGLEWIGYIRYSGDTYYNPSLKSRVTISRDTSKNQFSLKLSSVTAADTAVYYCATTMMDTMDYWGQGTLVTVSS VL: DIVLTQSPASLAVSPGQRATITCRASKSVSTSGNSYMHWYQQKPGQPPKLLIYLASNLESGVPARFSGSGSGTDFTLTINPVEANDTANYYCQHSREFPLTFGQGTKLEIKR	IC50	0.58

# next binder below
Sample 5888-153-H0L2 (antibody, human IgG4 S228P, kappa, V domains shown) VH: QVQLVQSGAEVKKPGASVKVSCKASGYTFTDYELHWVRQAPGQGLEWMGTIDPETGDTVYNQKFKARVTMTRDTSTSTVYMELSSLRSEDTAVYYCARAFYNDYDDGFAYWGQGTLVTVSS VL: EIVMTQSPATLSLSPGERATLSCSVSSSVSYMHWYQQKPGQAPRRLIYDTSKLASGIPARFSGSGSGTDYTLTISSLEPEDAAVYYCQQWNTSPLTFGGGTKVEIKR ; IC50 observed: 0.474
